The measured values listed here are drawn from PubChem BioAssay (EPA / NIEHS).

Target or system: chimpanzee Androgen Receptor (AR), AR (gene 747460) (UniProt O97775)
Sequence (O97775 whole entry, looked up): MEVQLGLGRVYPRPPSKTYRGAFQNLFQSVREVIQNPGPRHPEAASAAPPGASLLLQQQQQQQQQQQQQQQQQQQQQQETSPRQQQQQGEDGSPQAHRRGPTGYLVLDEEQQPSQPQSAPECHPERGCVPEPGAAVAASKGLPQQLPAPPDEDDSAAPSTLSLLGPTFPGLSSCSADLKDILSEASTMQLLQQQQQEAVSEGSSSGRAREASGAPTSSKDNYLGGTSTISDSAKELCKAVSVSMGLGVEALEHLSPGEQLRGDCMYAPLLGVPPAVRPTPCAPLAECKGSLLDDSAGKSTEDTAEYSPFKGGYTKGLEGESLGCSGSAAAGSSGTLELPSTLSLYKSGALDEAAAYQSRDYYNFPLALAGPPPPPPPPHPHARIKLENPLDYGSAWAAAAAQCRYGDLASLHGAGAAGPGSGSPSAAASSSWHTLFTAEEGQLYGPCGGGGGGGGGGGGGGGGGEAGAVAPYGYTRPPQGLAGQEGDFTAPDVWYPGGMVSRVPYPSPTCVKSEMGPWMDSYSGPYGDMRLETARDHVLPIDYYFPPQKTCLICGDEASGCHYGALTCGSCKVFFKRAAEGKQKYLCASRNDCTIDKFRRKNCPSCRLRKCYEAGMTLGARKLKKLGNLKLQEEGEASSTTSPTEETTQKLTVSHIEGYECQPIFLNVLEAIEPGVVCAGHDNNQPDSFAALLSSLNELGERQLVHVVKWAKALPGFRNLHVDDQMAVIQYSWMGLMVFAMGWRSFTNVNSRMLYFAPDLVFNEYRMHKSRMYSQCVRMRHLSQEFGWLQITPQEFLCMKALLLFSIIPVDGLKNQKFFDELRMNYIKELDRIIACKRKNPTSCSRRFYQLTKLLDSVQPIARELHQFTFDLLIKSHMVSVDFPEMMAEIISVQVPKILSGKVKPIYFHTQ
Procedure details: NVS_NR_cAR: NovaScreen (NVS) Nuclear Receptor Binding Assay for chimpanzee Androgen Receptor (AR) (AID 2283346);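 note: radioligand displacement from AR measured by scintillation counting in a cell-free assay; a loss of bound radioligand signal versus DMSO counts as binding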
Inconclusive results are not listed. Activity calls are given as the source filed them. Rule for the calls: active = hit-call score of the fitted dose curve at least 0.9, where 1 is the maximum; inconclusive = response in the unintended direction; inactive = score below 0.9.
Labels: active, inactive

| Structure as smiles | Assigned class |
| --- | --- |
| CC(c1ccc(O)cc1)(c1ccc(O)cc1)c1ccc(O)cc1 | active |
| C[C@]12CCC(=O)C=C1CC[C@@H]1[C@@H]2CC[C@]2(C)C(=O)CC[C@@H]12 | active |
| CC(C)(c1ccccc1)c1ccc(O)cc1 | active |
| COc1ccc(O)c(C(C)(C)C)c1 | active |
| O=C(O)C(F)(F)C(F)(F)C(F)(F)C(F)(F)C(F)(F)F | inactive |
